Listing: inhibition at 1 µM of selected molecules
target: human recombinant histamine H1 receptor (Homo sapiens); construct: expressed in transfected cells; host or cells: CHO cells; assay: Histamine H1 radioligand binding ([3H]Pyrilamine); details: 1 μM compound; […] [3H]Pyrilamine; read-out: Histamine Binding H1, percent inhibition of specific binding
Sequence (P35367 whole entry): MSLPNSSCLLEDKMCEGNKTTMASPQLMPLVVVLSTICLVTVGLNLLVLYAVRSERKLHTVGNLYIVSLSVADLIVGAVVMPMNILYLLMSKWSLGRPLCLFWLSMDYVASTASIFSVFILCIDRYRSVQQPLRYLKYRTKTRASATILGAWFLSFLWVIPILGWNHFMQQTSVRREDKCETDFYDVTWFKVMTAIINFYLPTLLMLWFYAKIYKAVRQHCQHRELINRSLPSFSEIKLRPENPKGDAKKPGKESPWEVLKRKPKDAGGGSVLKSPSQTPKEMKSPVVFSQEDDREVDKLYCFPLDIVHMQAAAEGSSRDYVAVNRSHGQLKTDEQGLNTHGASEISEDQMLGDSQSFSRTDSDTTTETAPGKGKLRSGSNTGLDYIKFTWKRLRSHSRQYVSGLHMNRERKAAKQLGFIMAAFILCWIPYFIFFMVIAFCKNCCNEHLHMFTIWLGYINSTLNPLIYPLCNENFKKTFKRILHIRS

Below, each entry is followed by its recorded inhibition at 1 µM result.
CN1CCc2c(c3cc(Cl)ccc3n2CC(=O)N2CCCC2)C1 = 84%
CCN1CCc2c(c3cc(C)ccc3n2CCc2ccccn2)C1 = 69%
Cc1ccc2c(c1)c1c(n2CCc2ccccc2)CCN(C)C1 = 97%
Cc1ccc2c(c1)c1c(n2CCc2ccc(Cl)cc2)CCN(C)C1 = 101%
CN1CCc2c(c3cc(Cl)ccc3n2CC(=O)N2CCNC(=O)C2)C1 = 18%
CCOC(=O)N1CCc2c(c3cc(Br)ccc3n2CCc2ccc(C)nc2)C1 = -14%
CCOC(=O)N1CCc2c(c3cc(-c4cccnc4)ccc3n2CCc2ccc(C)nc2)C1 = -3%
CCN1CCc2c(c3cc(C)ccc3n2Cc2ccc(C)nc2)C1 = 68%

Per the records, this molecule ( CN1CCc2c(c3cc(Cl)ccc3n2CCC(=O)N2CCCC2)C1 ) has inhibition at 1 µM equal to 60%

Per the records, this molecule ( Cc1ccc2c(c1)c1c(n2CCC2CCCCC2)CCN(C)C1 ) has inhibition at 1 µM equal to 103%

Per the records, this molecule ( CN1CCc2c(c3cc(Cl)ccc3n2CC(=O)N2CCCCC2)C1 ) has inhibition at 1 µM equal to 42%

Per the records, this molecule ( CN1CCc2c(c3cc(I)ccc3n2CCc2ccccc2F)C1 ) has inhibition at 1 µM equal to 97%

Per the records, this molecule ( COc1ccc(CCn2c3c(c4cc(C)ccc42)CN(C)CC3)cc1 ) has inhibition at 1 µM equal to 100%

Per the records, this molecule ( Cc1ccc2c(c1)c1c(n2CCc2ccncc2)CCN(C)C1 ) has inhibition at 1 µM equal to 100%

Per the records, this molecule ( Cc1ccc2c(c1)c1c(n2CCCc2ccccn2)CCN(C)C1 ) has inhibition at 1 µM equal to 99%

----------
target: human recombinant histamine H2 receptor (Homo sapiens); construct: expressed in transfected cells; host or cells: CHO-K1 cells; assay: Histamine H2 radioligand binding ([125I]Aminopotentidine); details: percent inhibition of specific binding; screened at 1 μM; read-out: Inhibition of ligand binding, Hist. H2
Sequence (P25021 whole entry): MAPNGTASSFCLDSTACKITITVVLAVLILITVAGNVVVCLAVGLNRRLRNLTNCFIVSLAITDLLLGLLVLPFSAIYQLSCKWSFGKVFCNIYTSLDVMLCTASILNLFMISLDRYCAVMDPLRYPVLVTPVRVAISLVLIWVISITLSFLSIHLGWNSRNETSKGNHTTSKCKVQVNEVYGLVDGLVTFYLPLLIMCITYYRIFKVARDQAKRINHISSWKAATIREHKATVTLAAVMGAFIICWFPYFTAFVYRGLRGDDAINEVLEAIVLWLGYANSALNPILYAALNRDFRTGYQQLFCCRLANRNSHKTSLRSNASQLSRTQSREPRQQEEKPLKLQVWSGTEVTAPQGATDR
Threshold rule: inhibition at 1 µM greater than or equal to 20% is Y; below that, N.

CN1CCc2c(c3cc(Cl)ccc3n2CC(=O)N2CCCC2)C1 = N

Data request: Kindly determine if inhibition at 1 µM recorded for CCc1ccc2c(c1)c1c(n2CCc2ccc(C(F)(F)F)nc2)CCN(C)C1 is above or exactly 20%.
Data returned: Y

Data request: Kindly determine if inhibition at 1 µM recorded for Cc1ccc2c(c1)c1c(n2CCc2ccc(C)nc2)C(Br)C(=O)N(C)C1 (stereo not drawn) is above or exactly 20%.
Data returned: N

Data request: Kindly determine if inhibition at 1 µM recorded for Cc1ccc2c(c1)c1c(n2CC(=O)N2CCSCC2)CCN(C)C1 is above or exactly 20%.
Data returned: N

Data request: Kindly determine if inhibition at 1 µM recorded for CCN1CCc2c(c3ccccc3n2CCc2ccccn2)C1 is above or exactly 20%.
Data returned: N

Data request: Kindly determine if inhibition at 1 µM recorded for CN1CCc2c(c3cc(Cl)ccc3n2CCc2cncc(C(F)(F)F)c2)C1 is above or exactly 20%.
Data returned: Y

Data request: Kindly determine if inhibition at 1 µM recorded for Cc1ccc2c(c1)c1c(n2CCc2ccc(C)[n+]([O-])c2)CCN(C)C1 is above or exactly 20%.
Data returned: N

Data request: Kindly determine if inhibition at 1 µM recorded for Cc1ccc2c(c1)c1c(n2CC(=O)N2CCN(C)CC2)CCN(C)C1 is above or exactly 20%.
Data returned: N

Data request: Kindly determine if inhibition at 1 µM recorded for CCN1CCc2c(c3cc(C)ccc3n2Cc2ccc(C)nc2)C1 is above or exactly 20%.
Data returned: Y

----------
target: human recombinant serotonin (5-Hydroxytryptamine) 5-HT2C receptor (Homo sapiens, UniProt P28335); construct: expressed in transfected cells; host or cells: CHO-K1 cells; experiment: Serotonin 5-HT2C radioligand binding ([3H]Mesulergine); set-up: concentration or dose not given beside the values; settings: percent inhibition of specific binding
Sequence (P28335 33-458): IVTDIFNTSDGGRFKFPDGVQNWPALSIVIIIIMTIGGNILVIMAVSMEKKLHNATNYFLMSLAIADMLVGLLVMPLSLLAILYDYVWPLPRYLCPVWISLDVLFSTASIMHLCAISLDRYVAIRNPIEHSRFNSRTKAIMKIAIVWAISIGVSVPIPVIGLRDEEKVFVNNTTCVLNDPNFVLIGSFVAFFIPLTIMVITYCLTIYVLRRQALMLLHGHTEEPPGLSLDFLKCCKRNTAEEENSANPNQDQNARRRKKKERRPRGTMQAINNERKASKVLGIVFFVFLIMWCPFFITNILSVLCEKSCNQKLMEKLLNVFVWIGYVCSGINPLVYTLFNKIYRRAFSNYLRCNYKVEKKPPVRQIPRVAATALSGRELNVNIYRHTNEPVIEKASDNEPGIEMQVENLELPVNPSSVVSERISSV
PROPERTY MEASURED: Inhibition of ligand binding, Ser. 5-HT2C
Note to self: number, then unit, no commentary.

Cc1ccc(Cn2c3c(c4ccccc42)CN(C)CC3)cn1 [Compound 17] = 8%
Cc1ccc2c(c1)c1c(n2CCc2ccccc2)CC(O)N(C)C1=O (stereo not drawn) [Compound 215] = 2%
CN1CCc2c(c3c(Cl)cccc3n2CCC2CCCCC2)C1 [Compound 187] = 77%
CC1CCCCN1C(=O)Cn1c2c(c3cc(Cl)ccc31)CN(C)CC2 (stereo not drawn) [Compound 321] = 61%
CN1CCc2c(c3cc(F)ccc3n2CCc2ccc(Cl)cc2)C1 [Compound 249] = 98%
CC(Cn1c2c(c3ccccc31)CN(C)CC2)c1ccc(F)cc1 (stereo not drawn) [Compound 455] = 97%

Per the records, this molecule ( Cc1ccc(CCn2c3c(c4cc(C(F)(F)F)ccc42)CN(C)CC3)cc1 [Compound 47] ) has Inhibition of ligand binding, Ser. 5-HT2C equal to 89%

Per the records, this molecule ( Cc1ccc2c(c1)c1c(n2CCc2ccc(C(C)C)nc2)CCN(C)C1 [Compound 360] ) has Inhibition of ligand binding, Ser. 5-HT2C equal to 83%

Per the records, this molecule ( Cc1ccc2c(c1)c1c(n2CCCc2ccc(C(F)(F)F)nc2)CCN(C)C1 [Compound 331] ) has Inhibition of ligand binding, Ser. 5-HT2C equal to 72%

----------
biological target: human recombinant dopamine D2L receptor (Homo sapiens); construct: expressed in transfected cells; host or cells: CHO cells; test: Dopamine D2L radioligand binding ([3H]Spiperone); details: compounds screened at 1 μM; read-out: Inhibition of ligand binding, Dop. D2L (percent inhibition of specific binding)
Sequence (P14416 whole entry): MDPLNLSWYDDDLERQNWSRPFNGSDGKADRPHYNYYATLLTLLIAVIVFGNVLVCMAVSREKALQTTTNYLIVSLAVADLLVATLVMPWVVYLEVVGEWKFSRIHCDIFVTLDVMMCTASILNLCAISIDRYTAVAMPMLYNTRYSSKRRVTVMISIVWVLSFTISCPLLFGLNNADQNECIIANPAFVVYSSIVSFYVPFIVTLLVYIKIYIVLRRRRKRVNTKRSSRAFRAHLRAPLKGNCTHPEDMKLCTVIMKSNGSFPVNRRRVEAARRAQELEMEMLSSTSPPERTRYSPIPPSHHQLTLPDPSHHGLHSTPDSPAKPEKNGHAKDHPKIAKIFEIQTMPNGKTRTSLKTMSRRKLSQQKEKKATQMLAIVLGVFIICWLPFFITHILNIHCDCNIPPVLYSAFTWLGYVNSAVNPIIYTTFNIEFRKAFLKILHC
Threshold rule: inhibition at 1 µM greater than or equal to 30% is Y; below that, N.

CN1CCc2c(c3cc(I)ccc3n2CC(=O)N2CCCCC2)C1 = N
CN1CCc2c(c3ccncc3n2CCc2ccncc2)C1 = N
CN1CCc2c(c3ncccc3n2CCc2ccncc2)C1 = N
COc1ccc2c(c1)c1c(n2CCc2nc(-c3ccccc3)cs2)CCN(C)C1 = N
CN1CCc2c(c3ncccc3n2CCc2ccccn2)C1 = N
Cc1ccc2c(c1)c1c(n2CCc2noc(-c3ccccc3)n2)CCN(C)C1 = Y
CN1CCc2c(c3ccccc3n2CCc2noc(-c3ccccc3)n2)C1 = N
CN1CCc2c(c3cc(Cl)ccc3n2CCc2noc(-c3ccccc3)n2)C1 = Y

Switching to the query record.
Data request: Kindly determine if inhibition at 1 µM recorded for Cc1ccc2c(c1)c1c(n2CCc2nc(-c3ccccc3)cs2)CCN(C)C1 is above or exactly 30%.
Data returned: Y

----------
target: human recombinant adrenergic α2B receptor (Homo sapiens); construct: expressed in transfected cells; host or cells: CHO-K1 cells; experiment: Adrenergic α2B radioligand binding ([3H]Rauwolscine); parameters: concentration or dose not given beside the values; details: percent inhibition of specific binding
Sequence (P18089 whole entry): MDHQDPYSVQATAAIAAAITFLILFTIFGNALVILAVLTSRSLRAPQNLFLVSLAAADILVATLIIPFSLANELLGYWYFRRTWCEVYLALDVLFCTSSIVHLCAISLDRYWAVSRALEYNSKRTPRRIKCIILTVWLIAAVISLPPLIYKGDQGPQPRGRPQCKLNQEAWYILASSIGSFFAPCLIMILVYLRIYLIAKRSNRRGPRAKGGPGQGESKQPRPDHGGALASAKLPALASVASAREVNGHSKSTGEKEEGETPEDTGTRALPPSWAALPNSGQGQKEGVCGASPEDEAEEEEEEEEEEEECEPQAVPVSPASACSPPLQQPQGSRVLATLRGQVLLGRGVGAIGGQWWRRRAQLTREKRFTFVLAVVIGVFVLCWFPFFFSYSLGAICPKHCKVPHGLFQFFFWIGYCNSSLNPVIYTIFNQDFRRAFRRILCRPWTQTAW
PROPERTY MEASURED: Inhibition of ligand binding, Adren. alpha2B (%)
Give your result in % as a bare value.

Below, each entry is followed by its recorded Inhibition of ligand binding, Adren. alpha2B result.
CC(=O)N1CCN(C(=O)Cn2c3c(c4cc(Cl)ccc42)CN(C)CC3)CC1 [Compound 297] = 7
Cc1ccc(CCn2c3c(c4cc(C(=O)O)ccc42)CNCC3)cn1 [Compound 274] = 9
CN1CCc2c(c3cc(Cl)ccc3n2CCCc2ccc(C(F)(F)F)nc2)C1 [Compound 324] = 98
Cc1ccc(CCn2c3c(c4cc(Cl)ccc42)CN(C)CC3)cc1 [Compound 43] = 108
Cc1ccc2c(c1)c1c(n2CCc2ccc(Cl)cc2)CCN(C)C1 [Compound 32] = 110

Per the records, this compound ( COc1ccc(CCn2c3c(c4cc(C)ccc42)CN(C)CC3)cc1 [Compound 247] ) has Inhibition of ligand binding, Adren. alpha2B equal to 103

Per the records, this compound ( Cc1ccc(CCn2c3c(c4cc(C(F)(F)F)ccc42)CN(C)CC3)cc1 [Compound 47] ) has Inhibition of ligand binding, Adren. alpha2B equal to 101

Per the records, this compound ( CC(C)c1ccc2c(c1)c1c(n2CCc2ccc(C(F)(F)F)nc2)CCN(C)C1 [Compound 342] ) has Inhibition of ligand binding, Adren. alpha2B equal to 108

Per the records, this compound ( CCN1CCc2c(c3ccccc3n2Cc2ccccc2)C1 [Compound 16] ) has Inhibition of ligand binding, Adren. alpha2B equal to 10
